pIC50: −log10 of the molar value.
Target or system UniProt P56817: recorded pIC50 listed per item.
Sequence (P56817 whole entry): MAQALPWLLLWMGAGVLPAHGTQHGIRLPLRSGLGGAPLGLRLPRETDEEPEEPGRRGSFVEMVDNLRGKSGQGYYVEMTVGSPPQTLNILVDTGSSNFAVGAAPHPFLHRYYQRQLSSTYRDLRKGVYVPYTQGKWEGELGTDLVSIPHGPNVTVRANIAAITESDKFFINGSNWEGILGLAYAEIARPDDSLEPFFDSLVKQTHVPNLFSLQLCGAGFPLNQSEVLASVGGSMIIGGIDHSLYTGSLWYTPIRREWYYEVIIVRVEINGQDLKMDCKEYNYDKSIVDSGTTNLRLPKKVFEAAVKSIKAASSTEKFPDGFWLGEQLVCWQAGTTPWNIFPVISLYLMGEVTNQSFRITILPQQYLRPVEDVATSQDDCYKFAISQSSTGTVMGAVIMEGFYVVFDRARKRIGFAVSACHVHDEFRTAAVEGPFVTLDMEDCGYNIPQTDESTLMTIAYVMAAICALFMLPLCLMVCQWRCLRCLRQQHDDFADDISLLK
experimental readout: pIC50

| compound | experimental readout | comparison sign | number |
| --- | --- | --- | --- |
| CC(C)C[C@H](NC(=O)[C@@H](NC(=O)[C@@H](N)CN)C(C)C)C(=O)NCC(O)C(=O)Nc1cccc(C(=O)O)c1 (stereo not given in full) | pIC50 | < | 5.00 |
| CC(C)C[C@H](NC(=O)[C@@H](NC(=O)[C@@H](N)CNC(=O)c1nnn[nH]1)C(C)C)C(=O)O | pIC50 | = | 5.36 |
| CC(C)C[C@H](NC(=O)[C@@H](NC(=O)[C@@H](N)CNC(=O)c1nn[nH]n1)C(C)C)C(=O)NC[C@@](O)(CCc1ccccc1)C(=O)Nc1cccc(C(=O)O)c1 | pIC50 | = | 5.85 |
| CC(C)C[C@H](NC(=O)[C@@H](NC(=O)[C@@H](N)CNC(=O)c1nnn[nH]1)C(C)C)C(=O)NC[C@](O)(CCc1ccccc1)C(=O)Nc1cccc(C(=O)O)c1 | pIC50 | = | 6.72 |
| CC(C)C[C@H](NC(=O)[C@@H](NC(=O)[C@@H](N)CNC(=O)c1nnn[nH]1)C(C)C)C(=O)NCCC(=O)Nc1cccc(C(=O)O)c1 | pIC50 | = | 6.06 |
| CC(C)C[C@H](NC(=O)[C@@H](NC(=O)[C@@H](N)CNC(=O)c1nn[nH]n1)C(C)C)C(=O)NCC(O)C(=O)Nc1cccc(C(=O)O)c1 (stereo not given in full) | pIC50 | = | 6.36 |
| CC(C)C[C@H](NC(=O)[C@@H](NC(=O)[C@H](N)CNC(=O)c1nnn[nH]1)C(C)C)C(=O)NCCC(=O)Nc1cccc(C(=O)O)c1 | pIC50 | < | 5.00 |
| CC(C)C[C@H](NC(=O)[C@@H](NC(=O)[C@@H](N)CNC(=O)c1nn[nH]n1)C(C)C)C(=O)NCC(O)C(=O)O (stereo not given in full) | pIC50 | = | 5.21 |
| CC(C)[C@H](NC(=O)[C@@H](NC(=O)[C@@H](CO)NC(=O)c1nn[nH]n1)C(C)C)C(=O)NCC(O)C(=O)Nc1cccc(C(=O)O)c1 (stereo not given in full) | pIC50 | < | 5.00 |
| CC(C)C[C@H](NC(=O)[C@H](Cc1ccccc1)NC(=O)[C@@H](N)CNC(=O)c1nnn[nH]1)C(=O)NC[C@@](O)(CCc1ccccc1)C(=O)Nc1cccc(C(=O)O)c1 | pIC50 | < | 5.00 |
| CC(C)C[C@H](NC(=O)[C@@H](NC(=O)[C@@H](N)CNC(=O)c1nn[nH]n1)C(C)C)C(=O)NCC(O)(CCc1ccccc1)C(=O)Nc1cccc(C(=O)O)c1 (stereo not given in full) | pIC50 | = | 6.40 |
| CC(C)C[C@H](NC(=O)[C@@H](NC(=O)[C@H](N)CO)C(C)C)C(=O)NCC(O)C(=O)Nc1cccc(C(=O)O)c1 (stereo not given in full) | pIC50 | < | 5.00 |
| CCCC[C@H](NC(=O)[C@@H](N)CNC(=O)c1nnn[nH]1)C(=O)N[C@@H](CC(C)C)C(=O)NCC(O)(CCc1ccccc1)C(=O)Nc1cccc(C(=O)O)c1 (stereo not given in full) | pIC50 | < | 5.00 |
| CC(C)C[C@H](NC(=O)[C@@H](NC(=O)[C@H](N)CNC(=O)c1nnn[nH]1)C(C)C)C(=O)NCC(O)(CCc1ccccc1)C(=O)Nc1cccc(C(=O)O)c1 (stereo not given in full) | pIC50 | < | 5.00 |
| CC(C)C[C@H](NC(=O)[C@@H](NC(=O)[C@H](CO)NC(=O)c1nnn[nH]1)C(C)C)C(=O)NCCC(=O)Nc1cccc(C(=O)O)c1 | pIC50 | < | 5.00 |
